Target: Human FXR full length (Homo sapiens, UniProt Q96RI1)
Construct: Human FXR full length and RXR full length was obtained from Ronald Evans' laboratory; expressed in transfected cells; host or cells: CV-1 cells
Sequence (Q96RI1 1-476 isoform Q96RI1-1): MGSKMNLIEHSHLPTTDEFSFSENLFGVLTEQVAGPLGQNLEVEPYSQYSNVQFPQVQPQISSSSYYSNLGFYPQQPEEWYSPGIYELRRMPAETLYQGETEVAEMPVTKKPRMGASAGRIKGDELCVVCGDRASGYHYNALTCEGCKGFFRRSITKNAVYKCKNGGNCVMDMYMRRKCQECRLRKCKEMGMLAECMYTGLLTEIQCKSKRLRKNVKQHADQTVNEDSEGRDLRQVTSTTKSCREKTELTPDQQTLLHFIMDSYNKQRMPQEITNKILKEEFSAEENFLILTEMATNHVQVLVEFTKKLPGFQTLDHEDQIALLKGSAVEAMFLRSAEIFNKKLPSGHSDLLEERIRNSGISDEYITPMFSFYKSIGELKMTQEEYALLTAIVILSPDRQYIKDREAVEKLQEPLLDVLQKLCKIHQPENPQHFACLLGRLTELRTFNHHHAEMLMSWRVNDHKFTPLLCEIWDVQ
Sequence (P19793 1-462 partner): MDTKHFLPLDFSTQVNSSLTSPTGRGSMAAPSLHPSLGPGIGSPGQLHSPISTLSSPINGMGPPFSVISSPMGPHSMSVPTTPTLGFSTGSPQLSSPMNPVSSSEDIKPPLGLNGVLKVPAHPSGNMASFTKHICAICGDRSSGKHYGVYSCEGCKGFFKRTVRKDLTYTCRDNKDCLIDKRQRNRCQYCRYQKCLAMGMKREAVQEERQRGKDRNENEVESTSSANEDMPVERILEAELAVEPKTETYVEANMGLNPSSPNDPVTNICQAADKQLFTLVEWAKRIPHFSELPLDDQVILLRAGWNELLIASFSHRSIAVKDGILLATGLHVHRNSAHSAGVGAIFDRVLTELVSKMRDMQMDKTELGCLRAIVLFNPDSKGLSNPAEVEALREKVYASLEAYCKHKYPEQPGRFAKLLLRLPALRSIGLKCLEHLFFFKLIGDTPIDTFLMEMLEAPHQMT
Test: FXR activity screen, luciferase reporter in transfected CV-1 cells
Format: cell-based
Conditions: first round; CV-1 cells, 24 hours; read-out: 1st RND EC50
property measured: EC50 (nM)

[[record]]
molecule = "[2H]C(c1ccc(-c2ccc3c(cnn3C)c2)cc1Cl)N(C(=O)C1CCCCC1)c1cccc(/C=C/C(=O)OC)c1 (stereo not drawn)"
units_symbol = "nM"
recorded_measurement = 346


A = COC(=O)/C=C/c1cccc(N(Cc2ccc(-c3ccc4c(cnn4C)c3)cc2F)C(=O)c2ccccc2)c1
B = COC(=O)/C=C/c1cccc(N(Cc2ccc(-c3ccc4c(cnn4C)c3)cc2)C(=O)C2CCN(C)CC2)c1
// compare measured EC50, left A , right B , return larger To answer, give the label that identifies your chosen option.
B
(B: 3300 nM, A: 606 nM)

* * *

Target: Human FXR full length (Homo sapiens, UniProt Q96RI1)
Construct: Human FXR full length and RXR full length was obtained from Ronald Evans' laboratory; expressed in transfected cells; host or cells: CV-1 cells
Sequence (Q96RI1 1-476 isoform Q96RI1-1): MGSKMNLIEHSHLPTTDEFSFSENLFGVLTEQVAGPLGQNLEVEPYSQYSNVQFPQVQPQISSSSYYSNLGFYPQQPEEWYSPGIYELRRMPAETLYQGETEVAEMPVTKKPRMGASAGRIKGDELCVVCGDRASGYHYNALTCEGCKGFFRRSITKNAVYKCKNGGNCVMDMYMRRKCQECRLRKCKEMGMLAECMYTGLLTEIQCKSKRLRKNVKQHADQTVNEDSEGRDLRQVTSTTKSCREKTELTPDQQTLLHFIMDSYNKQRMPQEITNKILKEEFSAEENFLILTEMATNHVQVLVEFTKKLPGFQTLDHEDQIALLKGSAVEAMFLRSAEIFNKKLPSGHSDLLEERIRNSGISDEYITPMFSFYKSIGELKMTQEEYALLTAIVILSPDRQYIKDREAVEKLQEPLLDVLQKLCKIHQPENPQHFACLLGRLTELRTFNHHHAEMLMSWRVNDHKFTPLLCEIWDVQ
Sequence (P19793 1-462 partner): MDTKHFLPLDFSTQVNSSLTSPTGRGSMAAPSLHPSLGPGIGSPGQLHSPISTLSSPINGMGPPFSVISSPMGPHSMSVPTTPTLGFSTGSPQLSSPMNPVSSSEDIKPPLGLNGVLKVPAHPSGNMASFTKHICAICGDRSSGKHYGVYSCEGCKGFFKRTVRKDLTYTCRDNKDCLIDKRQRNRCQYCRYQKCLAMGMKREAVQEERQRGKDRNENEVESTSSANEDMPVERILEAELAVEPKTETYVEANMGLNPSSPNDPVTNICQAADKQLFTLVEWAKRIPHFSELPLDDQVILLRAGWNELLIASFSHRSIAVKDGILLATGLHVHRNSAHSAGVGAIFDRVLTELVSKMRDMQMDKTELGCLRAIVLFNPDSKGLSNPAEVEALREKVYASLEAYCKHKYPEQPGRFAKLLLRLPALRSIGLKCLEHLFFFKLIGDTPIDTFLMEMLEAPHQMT
Test: FXR activity screen, luciferase reporter in transfected CV-1 cells
Format: cell-based
Settings: first round; CV-1 cells, 24 hours; read-out: 1st RND EC50
property measured: EC50 (nM)

[[record]]
compound = "COC(=O)/C=C/c1cc(F)cc(N(Cc2ccc(-c3ccc(N(C)C)cc3)cc2)C(=O)[C@@H]2C[C@@H]3CC[C@H]2C3)c1"
recorded_measurement = 252


I = COC(=O)/C=C/c1cccc(N(Cc2ccc(-c3ccc4c(cnn4C)c3)cc2Cl)C(=O)c2ccccc2)c1
II = COC(=O)/C=C/c1cccc(N(Cc2cccc3cc4cnn(C)c4c(F)c23)C(=O)C2CCN(C)CC2)c1
// compare measured EC50, left I , right II , return larger To answer, give the label that identifies your chosen option.
II

A = COC(=O)/C=C/c1cccc(N(Cc2cccc3ccc(N(C)C)c(F)c23)C(=O)C2CCCCC2)c1
B = [2H]C(c1ccc(-c2ccc3c(cnn3C)c2)cc1Cl)N(C(=O)c1ccccc1)c1cncc(/C=C/C(=O)OC)c1 (centres unmarked)
C = [2H]C(c1ccc(-c2ccc3c(cnn3C)c2)cc1F)N(C(=O)c1ccccc1)c1cccc(/C=C/C(=O)OC)c1 (centres unmarked) [NSSK00093]
D = COC(=O)/C=C/c1cc(F)cc(N(Cc2ccc(-c3ccc4c(cnn4C)c3)cc2Cl)C(=O)c2ccccc2)c1
Reorder the items by EC50, least to greatest. Answer by naming the labels in the order asked.
A, C, D, B
(A: 96.8 nM, C: 459 nM, D: 1400 nM, B: 5900 nM)

P = [2H]C(c1ccc(-c2ccc3c(cnn3C)c2)cc1)N(C(=O)C1CCCCC1)c1cccc(/C=C/C(=O)OC)c1 (centres unmarked)
Q = [2H]C(c1ccc(-c2ccc3c(cnn3C)c2)cc1)N(C(=O)[C@@H]1C[C@@H]2CC[C@H]1C2)c1cc(F)cc(/C=C/C(=O)OC)c1 (some centres unmarked)
Hi there, can you help? I need to know whether P or Q has lower measured EC50. To answer, give the label that identifies your chosen option.
P

* * *

biological target: Human FXR full length (Homo sapiens); construct: Human FXR full length and RXR full length was obtained from Ronald Evans' laboratory; expressed in transfected cells; host or cells: CV-1 cells; assay: FXR activity screen, luciferase reporter in transfected CV-1 cells; assay type: cell-based; conditions: second round; CV-1 cells, 24 hours; read-out: 2nd RND EC50
property measured: EC50 (nM)

[[record]]
compound = "[2H]C(c1ccc(-c2ccc(N(C)C)cc2)cc1Cl)N(C(=O)C1CCCCC1)c1cc(F)cc(/C=C/C(=O)OC)c1 (stereo not drawn)"
units_symbol = "nM"
recorded_measurement = 2200

[[record]]
compound = "COC(=O)/C=C/c1cc(F)cc(N(Cc2ccc(-c3ccc(N(C)C)cc3)cc2Cl)C(=O)c2ccccc2)c1"
units_symbol = "nM"
recorded_measurement = 1000

[[record]]
compound = "[2H]C(c1ccc(-c2ccc3c(cnn3C)c2)cc1)N(C(=O)[C@@H]1C[C@@H]2CC[C@H]1C2)c1cccc(/C=C/C(=O)OC)c1 (stereo partly drawn)"
units_symbol = "nM"
recorded_measurement = 1600

[[record]]
compound = "[2H]C(c1ccc(-c2ccc(N(C)C)cc2)cc1)N(C(=O)[C@@H]1C[C@@H]2CC[C@H]1C2)c1cncc(/C=C/C(=O)OC)c1 (stereo partly drawn)"
units_symbol = "nM"
recorded_measurement = 910

[[record]]
compound = "COC(=O)/C=C/c1cccc(N(Cc2cccc3cc4cnn(C)c4c(F)c23)C(=O)C2C[C@H]3CC[C@@H]2C3)c1 (stereo partly drawn)"
units_symbol = "nM"
recorded_measurement = 554


A = COC(=O)/C=C/c1cc(F)cc(N(Cc2ccc(-c3ccc4c(cnn4C)c3)cc2Cl)C(=O)C2CCCCC2)c1
B = [2H]C(c1ccc(-c2ccc(N(C)C)cc2)cc1)N(C(=O)c1ccccc1)c1cncc(/C=C/C(=O)OC)c1 (stereo not drawn)
C = COC(=O)/C=C/c1cncc(N(Cc2ccc(-c3ccc(N(C)C)cc3)cc2)C(=O)[C@@H]2C[C@@H]3CC[C@H]2C3)c1
D = COC(=O)/C=C/c1cccc(N(Cc2ccc(-c3ccc4c(cnn4C)c3)cc2)C(=O)[C@H]2C[C@H]3CC[C@@H]2C3)c1
Reorder the items by EC50, least to greatest. Answer by naming the labels in the order asked.
D, A, C, B
(D: 500 nM, A: 726 nM, C: 1300 nM, B: 1900 nM)
